Recorded GI50, one value per entry.
System: RPMI-8226
Assay: NCI tumour cell line growth inhibition, 48 h
Activity calls are given as the source filed them. No stated cut-off is given here; in the data, active = GI50 up to about 1.1 µM and inactive = higher.

[
  {
    "compound": "O=c1[nH]nc(Cc2ccccc2)n1Nc1ccccc1",
    "assay-system": "RPMI-8226",
    "GI50": "> 100 µM (inactive)"
  },
  {
    "compound": "c1ccc(N2N=C3N(c4ccccc4)C2N3c2ccccc2)cc1",
    "assay-system": "RPMI-8226",
    "GI50": "15.7 µM (inactive)"
  },
  {
    "compound": "C[C@H](NC(=O)OC1C2C=CC(O)C1CC2)c1ccccc1 (stereo partly drawn)",
    "assay-system": "RPMI-8226",
    "GI50": "22.4 µM (inactive)"
  },
  {
    "compound": "O=C(NCCCCNCCCNC(=O)OCc1ccccc1)OCc1ccccc1",
    "assay-system": "RPMI-8226",
    "GI50": "39 µM (inactive)"
  },
  {
    "compound": "Cc1ccc(-n2nnc(C#N)c2O)cc1",
    "assay-system": "RPMI-8226",
    "GI50": "> 100 µM (inactive)"
  },
  {
    "compound": "CON(C)C(=O)CCCO",
    "assay-system": "RPMI-8226",
    "GI50": "> 100 µM (inactive)"
  },
  {
    "compound": "CC(/C=C/c1ncccc1OCCCCCC(=O)O)=N\\NC1=NCCN1",
    "assay-system": "RPMI-8226",
    "GI50": "> 100 µM (inactive)"
  },
  {
    "compound": "CC1(CCC(=O)OC2CCCCC2)OCCO1",
    "assay-system": "RPMI-8226",
    "GI50": "> 100 µM (inactive)"
  }
]

---

System: SNB-19
Experiment: NCI tumour cell line growth inhibition, 48 h
The source made the active and inactive calls. Cut-off read from the data, not from the text of the source: active = GI50 up to about 1.1 µM and inactive = higher.
Possible outcomes: label 1 = active, label 0 = inactive

[
  {
    "compound": "CCNC1=Nc2ccccc2-n2c(nn3nc4ccccc4c23)N1CC",
    "class-name": "label 0"
  },
  {
    "compound": "C=CCNC1=C2C[C@@H](C)C[C@@H](OC)[C@H](OC(=O)CN(C)C)[C@H](C)/C=C(\\C)[C@@H](OC(N)=O)[C@H](OC)/C=C\\C=C(/C)C(=O)NC(=CC1=O)C2=O",
    "class-name": "label 1"
  },
  {
    "compound": "CCc1ccccc1NNc1cc(=O)[nH]c(=O)[nH]1",
    "class-name": "label 0"
  },
  {
    "compound": "C[C@]12CCC3[C@@H](CC[C@@H]4c5nonc5CC[C@]34C)C1C/C(=N/O)C2=O (stereo partly specified)",
    "class-name": "label 0"
  },
  {
    "compound": "O=C(NC(=S)Nc1ccc2c(c1)Sc1ccccc1O2)c1ccccc1",
    "class-name": "label 0"
  },
  {
    "compound": "CC(C)CCCC(=O)CCCCCCC(=O)CCN(O)C(=O)C(N)CO (stereo unspecified)",
    "class-name": "label 0"
  },
  {
    "compound": "C=C1C(=O)O[C@@H]2C[C@@]3(C)CCCC(=C)[C@@H]3C[C@H]12.C=C1C(=O)O[C@@H]2C[C@@]3(C)CCC[C@H](C)C3=C[C@H]12",
    "class-name": "label 0"
  },
  {
    "compound": "CC1OC(=O)C(C(C)C)NC(=O)C(C(C)C)OC(=O)C(C(C)C)NC(=O)C(C)OC(=O)C(C(C)C)NC(=O)C(C(C)C)OC(=O)C(C(C)C)NC(=O)C(C)OC(=O)C(C(C)C)NC(=O)C(C(C)C)OC(=O)C(C(C)C)NC1=O (stereo unspecified)",
    "class-name": "label 1"
  },
  {
    "compound": "COc1cc2c(c(OC)c1OC)-c1ccc(SC)c(=O)cc1[C@@H](O)CC2",
    "class-name": "label 1"
  },
  {
    "compound": "COc1ccc2ccnc(Cc3ccc(OCc4ccccc4)c(OC)c3)c2c1",
    "class-name": "label 0"
  },
  {
    "compound": "CN(C)CCOc1ccc2[nH]c(C(=O)N3CC(CCl)c4c3cc([N+](=O)[O-])c3ccccc43)cc2c1 (stereo unspecified)",
    "class-name": "label 0"
  }
]

---

System: MOLT-4
Assay: NCI tumour cell line growth inhibition, 48 h
Activity calls are given as the source filed them. Rule as the data show it: active = GI50 up to about 1.1 µM and inactive = higher.
Possible outcomes: active, inactive

[
  {
    "compound": "COc1cc(C2c3cc4c(cc3[C@@H](Nc3ccc(C(=O)O)cc3)C3COC(=O)[C@H]23)OCO4)cc(OC)c1O (stereo not given in full)",
    "assay-system": "MOLT-4",
    "class-name": "active"
  },
  {
    "compound": "CCc1ccccc1NC(=O)/C=C/c1ccccc1",
    "assay-system": "MOLT-4",
    "class-name": "inactive"
  },
  {
    "compound": "CSc1c(C#N)c(O)n(-c2ccc(Cl)cc2)c(=O)c1C(C)=O",
    "assay-system": "MOLT-4",
    "class-name": "inactive"
  },
  {
    "compound": "COc1cc(C2C3=C(COC3=O)Oc3cc4c(cc32)OCO4)cc(OC)c1OC (stereo not given)",
    "assay-system": "MOLT-4",
    "class-name": "active"
  },
  {
    "compound": "CC(=O)OCC1OC(c2c(OC(C)=O)cc(C)c3c(=O)cc(/C(C(C)=O)=C(\\C)O)oc23)C(OC(C)=O)C(OC(C)=O)C1OC(C)=O (stereo not given)",
    "assay-system": "MOLT-4",
    "class-name": "inactive"
  },
  {
    "compound": "Cc1ccc(S(=O)(=O)NC(=O)NC(CCCCN)C(=O)O)cc1 (stereo not given)",
    "assay-system": "MOLT-4",
    "class-name": "inactive"
  },
  {
    "compound": "CCOC(=O)CC(C)C(C#N)(OP1(=O)OC(c2ccccc2)C(C)N1C)c1ccccc1 (stereo not given)",
    "assay-system": "MOLT-4",
    "class-name": "inactive"
  },
  {
    "compound": "COC(=O)/C(=N\\O)C(C(=O)C=C(C)C)C(=O)C(=O)Nc1ccccc1C (stereo not given)",
    "assay-system": "MOLT-4",
    "class-name": "inactive"
  },
  {
    "compound": "COc1ccc(C(=O)C#Cc2cn(C3CC(O)C(CO)O3)c(=O)[nH]c2=O)cc1 (stereo not given)",
    "assay-system": "MOLT-4",
    "class-name": "inactive"
  },
  {
    "compound": "CCN(CC)Cc1cc(Nc2ccnc3ccc4nn(C)nc4c23)ccc1O",
    "assay-system": "MOLT-4",
    "class-name": "inactive"
  },
  {
    "compound": "COc1ccc2oc(=N)c(C(N)=O)cc2c1",
    "assay-system": "MOLT-4",
    "class-name": "inactive"
  },
  {
    "compound": "Cn1c(=S)[nH]c2sc3c(c2c1=O)CCSC3",
    "assay-system": "MOLT-4",
    "class-name": "inactive"
  },
  {
    "compound": "CC[C@@]1(O)C(=O)OCc2c1cc1n(c2=O)Cc2c-1nc1ccccc1c2/C=N\\NC(=O)C(N)CCSC (stereo not given in full)",
    "assay-system": "MOLT-4",
    "class-name": "active"
  },
  {
    "compound": "O=C(/C=C/C1C(=O)NC(=O)NC1=O)CC(=O)C(=O)Nc1cc(Cl)c(Cl)cc1Cl",
    "assay-system": "MOLT-4",
    "class-name": "inactive"
  },
  {
    "compound": "C=C(C)CNCCN",
    "assay-system": "MOLT-4",
    "class-name": "inactive"
  },
  {
    "compound": "COC(=O)C1=C(O)C(C(=O)OC)[C@]2(O)[C@H](C(=O)OC)[C@H]1C[C@@H](c1ccccc1OC)[C@H]2C(=O)OC (stereo not given in full)",
    "assay-system": "MOLT-4",
    "class-name": "inactive"
  },
  {
    "compound": "NC1=NN(c2ccccc2)C(=O)C1C(=O)C(=O)Nc1ccc(Cl)c(Cl)c1 (stereo not given)",
    "assay-system": "MOLT-4",
    "class-name": "inactive"
  },
  {
    "compound": "CNC(=O)N(C)/N=N/CCCl",
    "assay-system": "MOLT-4",
    "class-name": "inactive"
  },
  {
    "compound": "CCN1C(C)=NC2C(=O)c3ccccc3C(=O)C21 (stereo not given)",
    "assay-system": "MOLT-4",
    "class-name": "inactive"
  },
  {
    "compound": "COc1ccc(P2(=S)SP(=S)(c3ccc(Cl)cc3)S2)cc1 (stereo not given)",
    "assay-system": "MOLT-4",
    "class-name": "inactive"
  }
]
